Study target: soluble guanylate cyclase (sGC) expressed by CHO-K1-Rat sGC monoclonal cell line (Rattus norvegicus, UniProt P19686+P20595)
Sequence (P19686 1-690): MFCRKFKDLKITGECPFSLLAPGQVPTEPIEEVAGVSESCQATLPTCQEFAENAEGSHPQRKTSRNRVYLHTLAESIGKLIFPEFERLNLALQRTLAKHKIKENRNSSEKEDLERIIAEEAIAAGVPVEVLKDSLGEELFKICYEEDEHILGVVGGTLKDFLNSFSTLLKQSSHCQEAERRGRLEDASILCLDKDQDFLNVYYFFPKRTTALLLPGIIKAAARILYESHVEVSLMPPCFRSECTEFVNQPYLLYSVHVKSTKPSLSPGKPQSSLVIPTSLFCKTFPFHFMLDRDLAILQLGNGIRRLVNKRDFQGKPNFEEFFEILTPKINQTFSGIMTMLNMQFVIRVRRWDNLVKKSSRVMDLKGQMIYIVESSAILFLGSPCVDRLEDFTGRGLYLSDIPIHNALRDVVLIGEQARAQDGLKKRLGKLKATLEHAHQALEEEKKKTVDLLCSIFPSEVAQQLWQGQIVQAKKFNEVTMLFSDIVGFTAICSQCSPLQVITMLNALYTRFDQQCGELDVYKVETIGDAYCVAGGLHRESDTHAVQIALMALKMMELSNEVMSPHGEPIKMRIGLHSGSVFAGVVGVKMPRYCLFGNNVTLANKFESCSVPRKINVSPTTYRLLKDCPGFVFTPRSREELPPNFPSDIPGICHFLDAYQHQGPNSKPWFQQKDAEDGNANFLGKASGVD
Sequence (P20595 1-619): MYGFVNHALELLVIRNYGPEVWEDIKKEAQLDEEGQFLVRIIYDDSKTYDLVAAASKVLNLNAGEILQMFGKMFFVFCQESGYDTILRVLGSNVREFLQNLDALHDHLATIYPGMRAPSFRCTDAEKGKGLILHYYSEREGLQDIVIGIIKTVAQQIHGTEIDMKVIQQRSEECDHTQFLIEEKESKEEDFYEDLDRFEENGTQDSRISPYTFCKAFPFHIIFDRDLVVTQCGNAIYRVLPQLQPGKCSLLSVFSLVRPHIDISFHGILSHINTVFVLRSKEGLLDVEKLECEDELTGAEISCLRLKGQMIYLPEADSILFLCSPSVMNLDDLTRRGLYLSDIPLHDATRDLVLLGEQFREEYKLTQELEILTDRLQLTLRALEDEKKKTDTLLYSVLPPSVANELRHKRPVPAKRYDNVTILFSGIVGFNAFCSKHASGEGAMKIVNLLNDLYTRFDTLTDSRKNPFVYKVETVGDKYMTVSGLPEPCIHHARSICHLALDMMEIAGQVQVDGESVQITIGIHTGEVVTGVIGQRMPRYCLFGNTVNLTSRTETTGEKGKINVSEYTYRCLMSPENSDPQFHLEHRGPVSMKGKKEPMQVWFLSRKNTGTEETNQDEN
Measurement description: Effect on recombinant guanylate cyclase reporter cell line (CHO-K1-Rat sGC, Cisbio cGMP HTRF)
Recorded conditions: activating soluble guanylate cyclase
Class assignment keyed on EC50, ranges I: < 200 nM; II: ≥ 200 nM and < 400 nM; III: ≥ 400 nM

Determine which band this compound sits in: Nc1nc(-c2nn(Cc3ccccc3F)c3c(F)cccc23)nc(N)c1C(=O)O III

Determine which band this compound sits in: Nc1nc(-c2nn(Cc3ccccc3F)c3c(F)cccc23)nc(N)c1NC(=O)C1CCCCO1 (centres unmarked) III

Determine which band this compound sits in: Nc1nc(-c2nn(Cc3ccccc3F)c3c(F)cccc23)ncc1C(=O)N1CCC(F)(F)CC1 I

Determine which band this compound sits in: CN(C)C(=O)c1cnc(-c2nn(Cc3ccccc3F)c3c(F)cccc23)nc1N I

Determine which band this compound sits in: Nc1nc(-c2nn(Cc3ccccc3F)c3c(F)cccc23)ncc1C(=O)N1CCS(=O)(=O)CC1 III

Determine which band this compound sits in: Oc1nc(-c2nn(Cc3ccccc3F)c3c(F)cccc23)ncc1F III

Determine which band this compound sits in: Nc1nc(-c2nn(Cc3ccccc3F)c3c(F)cccc23)ncc1C(=O)NC1CC1 I

Determine which band this compound sits in: COC(=O)N(C)c1c(N)nc(-c2nn(Cc3ccccc3F)c3c(F)cc(F)cc23)nc1N II

Determine which band this compound sits in: CNC(=O)c1cnc(-c2nn(Cc3ccccc3F)c3c(F)cccc23)nc1 II

Determine which band this compound sits in: Nc1nc(-c2nn(Cc3ccccc3F)c3c(F)cccc23)ncc1C(=O)O III

Determine which band this compound sits in: COC(=O)N(C)c1c(N)nc(-c2nn(Cc3cncnc3)c3c(F)cccc23)nc1N III

Determine which band this compound sits in: Nc1nc(-c2nn(Cc3ccccc3F)c3c(F)cccc23)nc(N)c1C(=O)NC1CC1 II

Determine which band this compound sits in: OCCN1CCN(c2nc(-c3nn(Cc4ccccc4F)c4c(F)cccc34)ncc2F)CC1 I

Determine which band this compound sits in: Nc1nc(-c2nn(Cc3ccccc3F)c3c(F)cccc23)nc(N)c1NC(=O)C1CCCO1 (centres unmarked) III

Determine which band this compound sits in: Nc1nc(-c2nn(Cc3ccccc3F)c3c(F)cccc23)ncc1C(=O)N1CCCC1 I

Determine which band this compound sits in: COC(=O)Nc1c(N)nc(-c2nn(Cc3ccccc3F)c3c(F)cccc23)nc1N II
